Molecular target: HMG-CoA reductase (Rattus norvegicus)
Sequence (P51639 whole entry): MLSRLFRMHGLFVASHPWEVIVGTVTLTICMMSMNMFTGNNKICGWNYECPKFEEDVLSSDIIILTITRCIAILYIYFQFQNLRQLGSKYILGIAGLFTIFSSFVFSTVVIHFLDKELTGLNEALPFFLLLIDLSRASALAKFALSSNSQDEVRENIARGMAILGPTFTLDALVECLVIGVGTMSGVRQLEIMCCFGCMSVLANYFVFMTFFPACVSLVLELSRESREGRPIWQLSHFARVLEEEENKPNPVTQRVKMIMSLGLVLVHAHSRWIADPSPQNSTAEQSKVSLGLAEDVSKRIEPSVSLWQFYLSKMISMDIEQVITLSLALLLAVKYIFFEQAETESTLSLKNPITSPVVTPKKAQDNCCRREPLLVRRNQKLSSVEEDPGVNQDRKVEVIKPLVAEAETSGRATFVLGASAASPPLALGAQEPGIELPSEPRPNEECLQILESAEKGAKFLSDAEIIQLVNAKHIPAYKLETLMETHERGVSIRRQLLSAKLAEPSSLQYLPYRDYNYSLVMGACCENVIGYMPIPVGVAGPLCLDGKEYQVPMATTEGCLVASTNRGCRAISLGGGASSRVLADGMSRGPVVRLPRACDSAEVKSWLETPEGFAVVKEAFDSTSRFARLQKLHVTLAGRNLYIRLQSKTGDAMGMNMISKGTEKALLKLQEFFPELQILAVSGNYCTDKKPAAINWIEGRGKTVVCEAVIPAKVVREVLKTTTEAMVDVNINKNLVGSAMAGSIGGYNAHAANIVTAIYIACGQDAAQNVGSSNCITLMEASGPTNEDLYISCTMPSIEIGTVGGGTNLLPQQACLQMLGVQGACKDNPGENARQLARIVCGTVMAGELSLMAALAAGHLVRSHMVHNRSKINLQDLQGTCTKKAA
ENDPOINT: Ki

- CCC(C)C(=O)OC1CC(C)C=C2C=CC(C)C(CCC3CC(O)CC(=O)O3)C21 (stereo not shown): 530 pM

###

Assay: Acute oral toxicity
Details: in vivo, mouse
ENDPOINT: LD50

• CCC(C)C(=O)OC1CC(C)C=C2C=CC(C)C(CCC3CC(O)CC(=O)O3)C21 (stereo not shown) [Monacolin K] = ≥ 1000 mg/kg

Source of measurements: patent US4323648A
